Test system: 501Mel-XP cells (Vemurafenib-resistant)
ASSAY NOTES: Kinase inhibitor library screening, PrestoBlue cell viability, 1 or 10 μM, 72 h
CONDITION LABEL: 501Mel XP; 10μΜ; 72 h; in %
Friendly reminder: cell viability, 501Mel XP, 10μΜ below 40 is Satisfied, at or above is Not satisfied.

## Task Item CNC(=O)c1c(F)cccc1Nc1nc(Nc2cc3c(cc2OC)CCN3C(=O)CN(C)C)nc2[nH]ccc12 [GSK1838705A, reference compound] : cell viability, 501Mel XP, 10μΜ beneath 40, strictly?
## Result Satisfied

## Task // same read-out, input: C=CC(=O)Nc1cccc(Oc2nc(Nc3ccc(N4CCN(C)CC4)cc3)ncc2Cl)c1
## Result Satisfied

## Task How about this compound: C=CC(=O)Nc1cc2c(Nc3ccc(F)c(Cl)c3)ncnc2cc1OCCCN1CCOCC1
## Result Satisfied

## Task Follow-up entry: COc1cc2ncnc(Nc3ccc(F)c(Cl)c3)c2cc1NC(=O)/C=C/CN1CCCCC1
## Result Satisfied

## Task Would you kindly repeat that for O=c1cc(N2CCOCC2)oc2c(-c3cccc4c3sc3ccccc34)cccc12 ?
## Result Satisfied

## Task Repeat for the following compound: O=C(NOCC(O)CO)c1cc(Br)c(F)c(F)c1Nc1ccc(I)cc1F (centres unmarked)
## Result Not satisfied

## Task Also, C#Cc1cccc(Nc2ncnc3cc(OCCOC)c(OCCO)cc23)c1 [OSI-420 (Desmethyl Erlotinib)] please.
## Result Not satisfied

New cases:
## Task Say whether its cell viability, 501Mel XP, 10μΜ is strictly beneath 40. Entry: Cc1c(NC(=O)OC[C@@H]2COCCN2)cn2ncnc(Nc3ccc4c(cnn4Cc4cccc(F)c4)c3)c12
## Result Not satisfied

###

Measured Cell viability in kinase inhibitor library screening, 501Mel GP, 1μΜ accompanies every entry in the list below.
System: 501Mel-GP cells (Dabrafenib-resistant)
ASSAY NOTES: Kinase inhibitor library screening, PrestoBlue cell viability, 1 or 10 μM, 72 h
CONDITION LABEL: 501Mel GP; 1μΜ; 72 h; in %
Lab note: record the figure alone, no unit after it.

Solved entries (count: 3):
## Task Request the reported Cell viability in kinase inhibitor library screening, 501Mel GP, 1μΜ associated with O=C(O)c1ccc2c(c1)nc(Nc1cccc(Cl)c1)c1ccncc12 [cx-4945 (Silmitasertib)]
## Result 93.9

## Task Query COC[C@H]1OC(=O)c2coc3c2[C@@]1(C)C1=C(C3=O)[C@@H]2CCC(=O)[C@@]2(C)C[C@H]1OC(C)=O [Wortmannin] next
## Result 95.9

## Task CC[C@@H]1C(=O)N(C)c2cnc(Nc3ccc(C(=O)N[C@H]4CC[C@H](N5CCN(CC6CC6)CC5)CC4)cc3OC)nc2N1C(C)C [BI6727 (Volasertib)] ?
## Result 26.5

New cases:
## Task For Cc1ccc(-n2nc(C(C)(C)C)cc2NC(=O)Nc2ccc(OCCN3CCOCC3)c3ccccc23)cc1 [BIRB 796 (Doramapimod)] , what is its reported Cell viability in kinase inhibitor library screening, 501Mel GP, 1μΜ?
## Result 105.5

## Task And the next one, Cc1nc(NC(=O)N2CCC[C@H]2C(N)=O)sc1-c1csc(C(C)(C)C)n1 [A66] ?
## Result 92.2

## Task Lookup CNC(=O)c1ccc(C)c(-n2c(C)cc(OCc3ccc(F)cc3F)c(Br)c2=O)c1 [PH-797804]
## Result 106.6

## Task Same thing, different compound: Cc1ccccc1-n1c(Cn2cnc3c(N)ncnc32)nc2cccc(C)c2c1=O [IC-87114]
## Result 100.1

###

Test system: A375-XP cells (Vemurafenib-resistant)
ASSAY NOTES: Kinase inhibitor library screening, PrestoBlue cell viability, 1 or 10 μM, 72 h
CONDITION LABEL: A375 XP; 10μΜ; 72 h
Under this convention, yes denotes cell viability (kinase inhibitor library screening) strictly below 8% and no denotes cell viability (kinase inhibitor library screening) at or above 8%.

# example entries with known answers
## Task Field: below-cutoff. Rule: recorded cell viability (kinase inhibitor library screening) strictly less than 8%. Subject: CCn1c(-c2nonc2N)nc2c(C#CC(C)(C)O)ncc(OC[C@H]3CCCNC3)c21
## Result no

## Task Thanks! And Cc1csc(-c2nnc(Nc3ccc(Oc4ncccc4-c4ccnc(N)n4)cc3)c3ccccc23)c1 ?
## Result no

## Task Try this molecule too: CC(=O)NCC(=O)N1[C@@H]2CC[C@H]1c1ccc(Nc3ncc(C(F)(F)F)c(NC4CCC4)n3)cc12
## Result no

## Task What do we get for CC(C)CC(=O)Nc1[nH]nc2c1CN(C(=O)C1CCN(C)CC1)C2(C)C [PHA-793887, reference compound] ?
## Result no

## Task Same for CCN(CCO)CCCOc1ccc2c(Nc3cc(CC(=O)Nc4cccc(F)c4)[nH]n3)ncnc2c1
## Result no

Others:
## Task I'd appreciate it if you could check whether Cc1[nH]c(/C=C2\C(=O)Nc3ccc(S(=O)(=O)Cc4c(Cl)cccc4Cl)cc32)c(C)c1C(=O)N1CCC[C@@H]1CN1CCCC1 has cell viability (kinase inhibitor library screening) smaller than 8%.
## Result yes

###

Tested on: IGR37-XP cells (Vemurafenib-resistant)
ASSAY NOTES: Dose-response curves and IC50, PrestoBlue cell viability, 72 h
CONDITION LABEL: Homo sapiens, 72 h, read-out: Half-maximal inhibitory concentration (IC50)
pIC50: −log10 of the molar value.
Threshold check on pIC50: at or above 6 gives y, strictly below gives n.

# count of solved cases: 3
## Task Could you verify whether the entry CO[C@H]1C[C@@H]2CC[C@@H](C)[C@@](O)(O2)C(=O)C(=O)N2CCCC[C@H]2C(=O)O[C@H]([C@H](C)C[C@@H]2CC[C@@H](OC(=O)C(C)(CO)CO)[C@H](OC)C2)CC(=O)[C@H](C)/C=C(\C)[C@@H](O)[C@@H](OC)C(=O)[C@H](C)C[C@H](C)/C=C/C=C/C=C/1C shows pIC50 of no less than 6?
## Result n

## Task Try this compound next: C=CCn1c(=O)c2cnc(Nc3ccc(N4CCN(C)CC4)cc3)nc2n1-c1cccc(C(C)(C)O)n1 [MK-1775, reference compound]
## Result y

## Task Could you do the same for CNC(=O)c1cc(Oc2ccc(NC(=O)Nc3ccc(Cl)c(C(F)(F)F)c3)cc2)ccn1 , please?
## Result n

Continuing:
## Task Does COc1cc(OC)c(/C=C/S(=O)(=O)Cc2ccc(OC)c(NCC(=O)O)c2)c(OC)c1 have a reported pIC50 of at least 6?
## Result y

###

Test system: 501Mel-XP cells (Vemurafenib-resistant)
ASSAY NOTES: Kinase inhibitor library screening, PrestoBlue cell viability, 1 or 10 μM, 72 h
CONDITION LABEL: 501Mel XP; 10μΜ; 72 h; in %
As shown below, each of these compounds has a reported cell viability, 501Mel XP, 10μΜ value.
Output: the number by itself.

## Task Need cell viability, 501Mel XP, 10μΜ of CCN1CCN(Cc2ccc(-c3cc4c(N[C@H](C)c5ccccc5)ncnc4[nH]3)cc2)CC1 [AEE788 (NVP-AEE788)] , thanks.
## Result 0.239

## Task Another compound to check: Cc1cnc(Nc2ccc(N3CCN(C)CC3)cc2)nc1Nc1cccc(S(=O)(=O)NC(C)(C)C)c1 [TG101209]
## Result -0.127

## Task Please answer likewise for COc1cc2ncnc(Nc3ccc(O)c(Br)c3)c2cc1OC [WHI-P154]
## Result 63.6

Could you now look at the following compound, please?
## Task Give the measured cell viability, 501Mel XP, 10μΜ of CC(C)(C)c1cc(/C=C(\C#N)C(N)=S)cc(C(C)(C)C)c1O [Tyrphostin AG 879 (AG 879)] .
## Result 18.3

###

System: A375-XP cells (Vemurafenib-resistant)
ASSAY NOTES: Kinase inhibitor library screening, PrestoBlue cell viability, 1 or 10 μM, 72 h
CONDITION LABEL: A375 XP, 1μΜ; in %
PROPERTY LABEL: cell viability (kinase inhibitor library screening)
I'd appreciate a reply containing only the number, no unit.

The cases that follow already have their cell viability (kinase inhibitor library screening) on record.
## Task Which cell viability (kinase inhibitor library screening) reading was recorded for the compound C[C@@H](N)[C@H]1CC[C@H](C(=O)Nc2ccncc2)CC1.Cl.Cl [Y-27632 2HCl] ?
## Result 103.7

## Task Can you check CCn1c(N)c(C(=O)NC)c(=O)c2ccc(C#C[C@@](C)(O)COC)nc21 [SAR131675] next?
## Result 108.8

## Task And what about the compound COc1cc(Nc2ncc(F)c(Nc3ccc4c(n3)N(COP(=O)(O)O)C(=O)C(C)(C)O4)n2)cc(OC)c1OC [R788 (Fostamatinib)] ?
## Result 93.7

Continuing:
## Task cell viability (kinase inhibitor library screening) lookup needed for CN1CCN(CCOc2cc(OC3CCOCC3)c3c(Nc4c(Cl)ccc5c4OCO5)ncnc3c2)CC1 [Saracatinib (AZD0530)] , thanks.
## Result 92.8

## Task Can you handle COc1cc2/c(=N/c3ccc(Br)cc3F)nc[nH]c2cc1OCC1CCN(C)CC1 [Vandetanib (Zactima)] next?
## Result 103.0

## Task What about this compound? COc1cc(Nc2ncc(F)c(Nc3ccc4c(n3)NC(=O)C(C)(C)O4)n2)cc(OC)c1OC [R406(free base)]
## Result 103.9

## Task Also, Cc1cc2c(F)c(Oc3ncnn4cc(OC[C@@H](C)O)c(C)c34)ccc2[nH]1 [Brivanib (BMS-540215)] please.
## Result 104.1

## Task Similarly, N#CC1(c2ccc(NC(=O)c3cccnc3NCc3ccncc3)cc2)CCCC1 [Apatinib (YN968D1)] ?
## Result 103.9

## Task # iterate: Oc1cc(O)cc(/C=C/c2ccc(O)c(O)c2)c1 [Piceatannol]
## Result 98.5

## Task Continue with Cc1nc(Nc2ncc(C(=O)Nc3c(C)cccc3Cl)s2)cc(N2CCN(CCO)CC2)n1 [Dasatinib (BMS-354825)]
## Result 70.6

## Task Next entry: CNC(=O)c1cc(COc2nnc(Nc3ccc(Cl)cc3)c3ccoc23)ccn1 [Telatinib (BAY 57-9352)]
## Result 96.6

## Task Ok, now CC1(C)CNc2cc(NC(=O)c3cccnc3NCc3ccncc3)ccc21 [Motesanib Diphosphate]
## Result 109.8

## Task Next record, please: c1ccc2c(-c3cnn4cc(-c5ccc(N6CCNCC6)cc5)cnc34)ccnc2c1 [LDN193189]
## Result 98.9

## Task Now consider Cc1cc2c(F)c(Oc3ncnn4cc(OC[C@@H](C)OC(=O)[C@H](C)N)c(C)c34)ccc2[nH]1 [Brivanib alaninate (BMS-582664)] .
## Result 105.2

## Task What do you have for Cc1[nH]c(/C=C2\C(=O)Nc3ccccc32)c(C)c1CCC(=O)O [TSU-68] ?
## Result 108.6

## Task And what about the compound Cc1cccc(-c2[nH]c(C(C)(C)C)nc2-c2ccc3nccnc3c2)n1 [SB 525334] ?
## Result 109.3

## Task Then this compound: COc1cc2c(Oc3ccc4[nH]c(C)cc4c3F)ncnc2cc1OCCCN1CCCC1 [Cediranib (AZD2171)]
## Result 104.3

Data origin: paper PMC6364417
